Test system: giant foxtail (Setaria faberii)
runDescription: Test A preemergence
Assay type: in vivo
conditions: Setaria faberi, pre-emergence, 240 h, 125 g ai/ha, preemergence; visual injury rating, 0 to 100 scale where 0 is no effect and 100 is complete control; approximately 10 d; read-out: Foxtail, Giant plant response rating
Catalogue of pest or weed control at 125 g/ha readings, one per entry.
Give the number; % is assumed, so skip it.

Recorded results for 3 compounds are shown here.
Cc1c(F)cccc1NC(=O)[C@H]1C(=O)N(C)C[C@@H]1c1ccc(OC(F)F)cc1	100
COc1ccc([C@H]2CN(C)C(=O)[C@@H]2C(=O)Nc2ccccc2F)c(OC)c1	60
CN1C[C@H](c2cccc(C#N)c2)[C@@H](C(=O)Nc2cccc(F)c2F)C1=O	100

Inquiry: If you can, please state the reported pest or weed control at 125 g/ha value of N#Cc1ccc([C@H]2CNC(=O)[C@@H]2C(=O)Nc2ccccc2F)cc1F .
Reply text: 0
